# targetSystem: Androgen receptor (Homo sapiens)
# Sequence (P10275 whole entry): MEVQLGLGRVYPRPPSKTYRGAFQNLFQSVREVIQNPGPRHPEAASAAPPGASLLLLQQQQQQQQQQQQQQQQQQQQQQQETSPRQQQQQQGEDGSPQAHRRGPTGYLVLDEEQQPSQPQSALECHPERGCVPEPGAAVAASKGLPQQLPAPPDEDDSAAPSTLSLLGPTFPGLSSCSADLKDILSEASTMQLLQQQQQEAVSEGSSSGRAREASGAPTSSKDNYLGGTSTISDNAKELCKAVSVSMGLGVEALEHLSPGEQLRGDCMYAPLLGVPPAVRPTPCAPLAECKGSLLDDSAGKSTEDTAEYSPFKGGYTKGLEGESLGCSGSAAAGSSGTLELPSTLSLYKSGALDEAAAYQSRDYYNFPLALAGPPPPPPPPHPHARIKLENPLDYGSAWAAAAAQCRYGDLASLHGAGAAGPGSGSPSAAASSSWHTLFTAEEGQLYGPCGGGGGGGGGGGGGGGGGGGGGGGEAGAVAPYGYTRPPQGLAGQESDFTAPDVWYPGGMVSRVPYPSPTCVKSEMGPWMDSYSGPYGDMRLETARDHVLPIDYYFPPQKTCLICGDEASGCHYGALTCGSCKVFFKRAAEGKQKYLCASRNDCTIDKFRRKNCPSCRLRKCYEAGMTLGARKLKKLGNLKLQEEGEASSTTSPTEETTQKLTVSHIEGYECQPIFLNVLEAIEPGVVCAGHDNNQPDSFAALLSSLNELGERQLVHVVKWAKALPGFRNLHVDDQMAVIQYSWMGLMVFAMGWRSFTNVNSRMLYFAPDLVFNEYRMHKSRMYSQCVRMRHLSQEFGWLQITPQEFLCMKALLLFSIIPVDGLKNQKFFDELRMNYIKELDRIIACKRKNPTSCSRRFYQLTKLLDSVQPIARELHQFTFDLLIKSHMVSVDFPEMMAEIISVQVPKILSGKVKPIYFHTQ
pIC50: −log10 of the molar value.
# pIC50 against Androgen receptor (Homo sapiens), merged from multiple literature sources

Field: example entries. Status: answers known.
compound: N#Cc1cccc(C2=NOC3CCCCC23)c1C(F)(F)F (cis isomer)
targetSystem: Androgen receptor (Homo sapiens)
pIC50: 7.10
--
compound: Cn1ncc(-c2ccc3c(c2)NC(=O)CO3)c1-c1ccc(F)cc1
targetSystem: Androgen receptor (Homo sapiens)
pIC50: < 5.00
--
compound: N#Cc1ccc(N2N=C(c3ccc(C(=O)O)cc3)C[C@@H]2c2ccc(F)cc2)cc1Cl
targetSystem: Androgen receptor (Homo sapiens)
pIC50: < 5.05
--
compound: N#Cc1ccc(N2N=C3c4ccc(C(=O)O)cc4CC[C@@H]3[C@@H]2C2CCCC2)cc1 (racemic)
targetSystem: Androgen receptor (Homo sapiens)
pIC50: < 5.00

// recorded pIC50 for C[C@@H]1CN(c2ccc(C#N)c(C(F)(F)F)c2)[C@@H](C)CN1C(=O)Nc1ccccn1 (racemic) : 5.11

// recorded pIC50 for O=S(=O)(Nc1ccccc1)c1ccc(-c2ccc3c(cnn3-c3ccc(F)cc3)c2)c(C(F)(F)F)c1 : < 5.00

// recorded pIC50 for N#Cc1ccc(-c2ccc3c(cnn3-c3ccc(F)cc3)c2)cc1 : < 5.00

// recorded pIC50 for COc1cccc2c1-c1ccc(NS(C)(=O)=O)cc1C(c1ccc(C)cc1)O2 (centres undefined) : < 5.00

// recorded pIC50 for Cc1c(NS(C)(=O)=O)cccc1N(Cc1ccc(Oc2ccc(Cl)c(OCC(=O)O)c2)cc1)Cc1ccc(F)cc1F : 5.44

// recorded pIC50 for C[C@]12Cn3cnc(-c4ccc(F)cc4)c3C=C1CCC[C@@H]2[C@](C)(O)c1ccc(C#N)cc1 : < 5.40

// recorded pIC50 for Cc1cc(F)ccc1-n1nc(C(F)(F)F)cc1-c1cc(C)c2c(c1)NC(=O)CO2 : < 5.00

// recorded pIC50 for CCCNS(=O)(=O)c1ccc(-c2ccc3c(cnn3-c3ccc(F)cc3)c2)c(C(F)(F)F)c1 : 5.20

// recorded pIC50 for CC(C)CNS(=O)(=O)c1ccc(-c2ccc3c(cnn3-c3ccc(F)cc3)c2)c(C(F)(F)F)c1 : 5.20

// recorded pIC50 for Cc1cc(-c2c(C)nn(C)c2-c2ccc(F)cc2)cc2c1OCC(=O)N2 : < 5.00
